Each recorded value in this set is attributed to patent US9708336B2.

- assayed target: VIM-1 (Pseudomonas aeruginosa (strain ATCC 15692 / DSM 22644 / CIP 104116 / JCM 14847 / LMG 12228 / 1C / PRS 101 / PAO1))
- test protocol: Enzyme activity: determination of IC50, fluorescence assay with CCF2-FA substrate (VIM-1)
- Assay type: biochemical
- reported conditions: VIM-1 enzyme, CCF2-FA substrate; read-out: VIM-1 IC50
Please go through the items and note down their pIC50.
Numbers only, as −log10 of the molar value.

Below, 3 molecules whose answers are already recorded.
>>> df
                                   molecule  assay_result
0  NS(=O)(=O)c1c(C(F)(F)F)ccc(-c2ccc3c(c2)CNC3)c1-c1nnn[nH]1 [Example 715]          9.14
1  Cc1ccc(-c2ccc(C(F)(F)F)c(S(N)(=O)=O)c2-c2nnn[nH]2)c2[nH]c(N)nc12 [Example 568]          9.79
2  N#Cc1cc(-c2ccc(C(F)(F)F)c(S(N)(=O)=O)c2-c2nnn[nH]2)c2[nH]c(N)nc2c1 [Example 569]          9.51

Then there is this molecule:
Using the record for CNCCN1CCC(c2ccc(-c3ccc(C(F)(F)F)c(S(N)(=O)=O)c3-c3nnn[nH]3)cc2)CC1 [Example 674] , state its measured pIC50. 7.76
